This section presents molecules with their documented inhibition at 0.5 µM values.
Molecular target: PARP-1 enzyme (Homo sapiens, UniProt P09874)
Construct: purchased Trevigen 4690–096-K
Sequence (P09874 whole entry): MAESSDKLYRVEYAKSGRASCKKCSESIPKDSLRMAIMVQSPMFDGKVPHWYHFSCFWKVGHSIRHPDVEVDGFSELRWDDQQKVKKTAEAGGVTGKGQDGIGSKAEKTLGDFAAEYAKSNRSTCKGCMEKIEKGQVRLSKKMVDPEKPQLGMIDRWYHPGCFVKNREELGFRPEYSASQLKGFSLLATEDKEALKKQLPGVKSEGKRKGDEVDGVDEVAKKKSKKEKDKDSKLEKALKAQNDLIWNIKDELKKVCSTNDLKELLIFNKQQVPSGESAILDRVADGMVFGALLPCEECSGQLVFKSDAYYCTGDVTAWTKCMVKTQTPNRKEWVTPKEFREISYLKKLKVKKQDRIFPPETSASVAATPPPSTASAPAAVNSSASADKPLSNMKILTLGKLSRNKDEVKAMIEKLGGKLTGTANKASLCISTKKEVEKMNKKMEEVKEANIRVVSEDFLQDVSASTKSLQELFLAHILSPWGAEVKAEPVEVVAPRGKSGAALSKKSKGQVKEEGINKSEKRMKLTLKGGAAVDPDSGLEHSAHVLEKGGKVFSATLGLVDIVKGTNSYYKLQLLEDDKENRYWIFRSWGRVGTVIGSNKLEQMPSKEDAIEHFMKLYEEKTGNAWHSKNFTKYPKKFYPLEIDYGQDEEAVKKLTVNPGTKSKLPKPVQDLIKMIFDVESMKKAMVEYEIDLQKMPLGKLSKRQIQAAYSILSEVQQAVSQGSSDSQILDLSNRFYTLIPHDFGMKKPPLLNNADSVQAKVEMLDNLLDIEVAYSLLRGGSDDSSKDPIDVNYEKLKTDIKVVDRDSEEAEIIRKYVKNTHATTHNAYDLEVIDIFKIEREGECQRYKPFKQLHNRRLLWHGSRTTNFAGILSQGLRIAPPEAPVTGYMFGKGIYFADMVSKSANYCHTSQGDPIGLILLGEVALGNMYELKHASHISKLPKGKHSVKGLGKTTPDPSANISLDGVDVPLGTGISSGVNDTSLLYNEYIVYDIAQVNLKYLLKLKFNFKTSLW
Assay: biochemical
Settings: PARP-1, measured at the conc. of 0.5 μM, mean ± SD, n=3; read-out: Inhibition rate (%)
measurement kind: inhibition at 0.5 µM (%)

molecule	measurement kind	endpoint value
COc1ccccc1/C=C/C(=O)N1CCN(C(=O)c2cc(Cc3n[nH]c(=O)c4ccccc34)ccc2F)CC1 [5e]	inhibition at 0.5 µM	62.6
COc1ccc(OC)c(/C=C/C(=O)N2CCN(C(=O)c3cc(Cc4n[nH]c(=O)c5ccccc45)ccc3F)CC2)c1 [5f]	inhibition at 0.5 µM	75.6
O=C(/C=C/c1ccc(F)cc1)N1CCN(C(=O)c2cc(Cc3n[nH]c(=O)c4ccccc34)ccc2F)CC1 [5g]	inhibition at 0.5 µM	85.6
O=C(/C=C/c1ccccc1)N1CCN(C(=O)c2cc(Cc3n[nH]c(=O)c4ccccc34)ccc2F)CC1 [5a]	inhibition at 0.5 µM	75.2

All figures here come from paper PMC6237161.
